Reported IC50 values for the following compounds.
TESTED_ON: VEGA-NRP1 (Homo sapiens)
Sequence (P15692 whole entry): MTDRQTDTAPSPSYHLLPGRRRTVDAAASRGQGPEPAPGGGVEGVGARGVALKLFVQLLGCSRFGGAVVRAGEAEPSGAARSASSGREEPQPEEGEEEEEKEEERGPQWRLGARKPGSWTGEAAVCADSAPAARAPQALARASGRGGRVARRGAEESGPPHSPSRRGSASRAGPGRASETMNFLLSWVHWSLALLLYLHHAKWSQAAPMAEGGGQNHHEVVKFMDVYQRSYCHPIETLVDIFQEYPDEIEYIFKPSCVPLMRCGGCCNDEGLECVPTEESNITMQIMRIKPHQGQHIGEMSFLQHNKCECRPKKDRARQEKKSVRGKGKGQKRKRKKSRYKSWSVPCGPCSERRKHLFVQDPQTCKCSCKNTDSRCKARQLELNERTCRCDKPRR
Sequence (O14786 whole entry): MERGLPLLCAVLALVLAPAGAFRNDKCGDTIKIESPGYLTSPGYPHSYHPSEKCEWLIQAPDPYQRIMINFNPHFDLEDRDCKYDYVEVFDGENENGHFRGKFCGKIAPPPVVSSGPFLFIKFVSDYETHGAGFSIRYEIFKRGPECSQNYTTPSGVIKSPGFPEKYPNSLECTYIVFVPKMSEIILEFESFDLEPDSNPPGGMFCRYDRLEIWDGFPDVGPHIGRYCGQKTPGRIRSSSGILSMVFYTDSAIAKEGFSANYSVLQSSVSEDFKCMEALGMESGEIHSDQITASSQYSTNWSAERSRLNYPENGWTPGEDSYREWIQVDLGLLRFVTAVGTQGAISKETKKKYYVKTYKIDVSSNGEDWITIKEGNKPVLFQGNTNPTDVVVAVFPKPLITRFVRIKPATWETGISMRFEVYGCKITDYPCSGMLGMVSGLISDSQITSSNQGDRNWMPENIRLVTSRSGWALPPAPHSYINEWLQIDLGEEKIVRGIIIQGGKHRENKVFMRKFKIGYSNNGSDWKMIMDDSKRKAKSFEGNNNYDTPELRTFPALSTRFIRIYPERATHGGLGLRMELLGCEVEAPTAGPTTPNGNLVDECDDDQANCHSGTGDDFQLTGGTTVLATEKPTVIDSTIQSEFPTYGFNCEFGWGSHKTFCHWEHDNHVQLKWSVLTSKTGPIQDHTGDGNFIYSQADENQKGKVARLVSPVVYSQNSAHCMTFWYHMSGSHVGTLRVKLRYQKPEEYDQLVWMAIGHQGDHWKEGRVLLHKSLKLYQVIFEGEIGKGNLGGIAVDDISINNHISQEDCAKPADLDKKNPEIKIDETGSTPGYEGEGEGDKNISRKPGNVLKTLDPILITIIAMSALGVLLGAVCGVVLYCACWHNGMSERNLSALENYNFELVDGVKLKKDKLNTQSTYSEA
EXPERIMENTAL_DETAILS: Inhibition of human biotinylated-VEGFA165 binding to recombinant human NRP-1 measured after 2 hrs by chemiluminescent based ELISA
Format: protein assay
MEASUREMENT_CONTEXT: read-out: IC50
Where a SMILES comes first, the peptide text is derived from it. Side-chain parts run from the residue outwards. [ ]: non-standard residue; d: D form. The star is where a group is joined. ξ: configuration not given here. Oic(3aξ,7aξ) = O=C(O)[C@@H]1CC2CCCCC2N1; hArg = N=C(N)NCCCC[C@H](N)C(=O)O; X2 = N[C@@H](CCCS)C(=O)*; Dab = NCC[C@H](N)C(=O)O; Dap = NC[C@H](N)C(=O)O; X3 = CSC[C@H](N)C(=O)*
// return numeric value only (unit: nM, not printed)

# get_value(readout='IC50', item= CSC[C@H](N)C(=O)N[C@@H](CCCCNC(=N)N)C(=O)NCCCC[C@H](N)C(=O)N[C@@H](CCN)C(=O)N1C2CCCCC2C[C@H]1C(=O)N[C@@H](CCCNC(=N)N)C(=O)O (some centres undefined) (H-K([hArg-X3])[Dab][Oic(3aξ,7aξ)]R-OH) ) 2820

Similarly, CC[C@H](N)C(=O)N[C@@H](CCCCNC(=N)N)C(=O)NCCCC[C@H](N)C(=O)N[C@@H](CCN)C(=O)N1C2CCCCC2C[C@H]1C(=O)N[C@@H](CCCNC(=N)N)C(=O)O (some centres undefined) (HELM PEPTIDE1{K.[Dab].[O=C([C@@H]1CC2CCCCC2N1[*:1])[*:2]].R}|PEPTIDE2{[Abu].[N=C(N)NCCCC[C@H](N[*:1])C(=O)[*:2]]}$PEPTIDE1,PEPTIDE2,1:R3-2:R2$$$V2.0) ? 2480

N=C(N)NCCCC[C@H](NC(=O)[C@@H](N)CCCS)C(=O)NCCCC[C@H](N)C(=O)N[C@@H](CCN)C(=O)N1C2CCCCC2C[C@H]1C(=O)N[C@@H](CCCNC(=N)N)C(=O)O (some centres undefined) (H-K([hArg-X2])[Dab][Oic(3aξ,7aξ)]R-OH) ? 1330

The record that follows has no IC50 shown yet.
Could you tell me which IC50 is on file for N=C(N)NCCCC[C@H](N)C(=O)NCCCC[C@H](NC(=O)[C@@H](N)CN)C(=O)N[C@@H](CCN)C(=O)N1C2CCCCC2C[C@H]1C(=O)N[C@@H](CCCNC(=N)N)C(=O)O (some centres undefined) (H-[Dap]K(hArg)[Dab][Oic(3aξ,7aξ)]R-OH) ? 440
